# Test Target: Myeloid Cell Leukemia 1 (Mcl-1) (Homo sapiens)
# Sequence (Q07820 whole entry): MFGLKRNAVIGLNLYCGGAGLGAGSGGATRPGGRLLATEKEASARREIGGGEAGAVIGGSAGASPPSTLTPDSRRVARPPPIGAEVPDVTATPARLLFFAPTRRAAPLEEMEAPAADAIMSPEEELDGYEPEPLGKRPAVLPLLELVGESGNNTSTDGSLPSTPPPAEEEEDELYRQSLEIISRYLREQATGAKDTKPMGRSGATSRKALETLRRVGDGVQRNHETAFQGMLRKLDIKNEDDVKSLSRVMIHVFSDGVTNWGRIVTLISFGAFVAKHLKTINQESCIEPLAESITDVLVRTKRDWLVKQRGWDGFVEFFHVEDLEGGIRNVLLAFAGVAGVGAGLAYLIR
# Assay: Terbium labeled Mcl-1 HTRF binding assay utilizing the Cy5-labeled BIM BH3 peptide
# Condition Details: Ki=IC50/(1+[L]/Kd), [L]=8 nM, Kd=10 nM; first table (before recalibration of the equipment)
Please respond with reported Ki for every item in the list.
# value in nM; strip the unit string

Query: Report Ki for Cc1c2c(nn1C)CN(C)Cc1cc(n(C)n1)CS(=O)(=O)c1cc(c3ccccc3c1)OCCCc1c(C(=O)O)n(C)c3c-2c(Cl)ccc13 (single isomer, unassigned) [Compound 2]
Result: 86.3

Query: Identify the reported Ki for the following entry. Cc1c2c(nn1C)CS(=O)(=O)Cc1cc(n(C)n1)CSc1cc(c3ccccc3c1)OCCCc1c(C(=O)O)n(C)c3c-2c(Cl)ccc13 (single isomer, unassigned)
Result: 1.7

Query: Please look at this molecule and report its Ki: Cc1c2c(nn1C)CN(C)Cc1cc(n(C)n1)CS(=O)(=O)c1cc(c3ccccc3c1)OCCCc1c(C(=O)O)n(C)c3c-2c(Cl)ccc13 (single isomer, unassigned) [Compound 1]
Result: 0.62
